- tgt: FGFR1 (Homo sapiens (Human), UniProt P11362)
- Sequence (P11362 22-822): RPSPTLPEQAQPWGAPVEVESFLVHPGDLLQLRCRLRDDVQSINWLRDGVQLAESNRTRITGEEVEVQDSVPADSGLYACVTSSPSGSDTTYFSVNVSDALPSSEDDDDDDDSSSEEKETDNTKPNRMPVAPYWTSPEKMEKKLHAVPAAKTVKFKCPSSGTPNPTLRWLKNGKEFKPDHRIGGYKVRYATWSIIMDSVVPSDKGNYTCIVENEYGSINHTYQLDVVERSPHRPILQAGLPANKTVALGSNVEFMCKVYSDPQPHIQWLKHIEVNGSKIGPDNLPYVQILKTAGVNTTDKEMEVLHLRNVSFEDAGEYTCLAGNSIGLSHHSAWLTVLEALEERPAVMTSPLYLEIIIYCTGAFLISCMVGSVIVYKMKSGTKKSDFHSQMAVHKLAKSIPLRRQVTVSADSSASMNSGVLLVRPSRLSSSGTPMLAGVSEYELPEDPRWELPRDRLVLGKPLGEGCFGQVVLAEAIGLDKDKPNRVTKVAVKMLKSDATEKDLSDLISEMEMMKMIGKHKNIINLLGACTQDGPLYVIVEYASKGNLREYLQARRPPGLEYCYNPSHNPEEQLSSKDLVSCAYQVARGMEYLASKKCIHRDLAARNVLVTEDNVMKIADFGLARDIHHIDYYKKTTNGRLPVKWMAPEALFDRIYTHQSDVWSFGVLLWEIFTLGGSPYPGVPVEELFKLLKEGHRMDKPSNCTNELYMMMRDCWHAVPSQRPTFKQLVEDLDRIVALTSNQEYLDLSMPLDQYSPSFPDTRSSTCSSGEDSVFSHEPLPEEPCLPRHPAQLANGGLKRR
- assaySummary: Kinase assay, binding constants (Kd), kinase-tagged T7 phage, qPCR
- Protocol: Kinase-tagged T7 phage strains were prepared in an E. coli host derived from the BL21 strain. E. coli were grown to log-phase and infected with T7 phage and incubated with shaking at 32° C. until lysis. The lysates were centrifuged and filtered to remove cell debris. […] Test compounds were prepared as 111λ stocks in 10000 DMS0. Kds were determined using an 11-point 3-fold compound dilution series with three DMSO control points. […] The kinase concentration in the eluates was measured by qPCR. […]
observedProperty: Kd

I looked up "Cc1cc(-c2n[nH]c3ccc(O[C@H](C)c4c(Cl)cncc4Cl)cc23)cnc1N1CC2(C1)CN(S(C)(=O)=O)C2" and its Kd for FGFR1 (Homo sapiens (Human), UniProt P11362) was 20 to 100 nM

I looked up Cc1cc(-c2n[nH]c3ccc(O[C@H](C)c4c(C)cnnc4C)cc23)cnc1N1CCN2C(=O)NCC2C1 (stereo partly shown) and its Kd for FGFR1 (Homo sapiens (Human), UniProt P11362) was 20 to 100 nM

I looked up "Cc1cnnc(C)c1[C@H](C)Oc1ccc2[nH]nc(-c3ccc(N4CC5(CCS(=O)(=O)C5)C4)nc3)c2c1" and its Kd for FGFR1 (Homo sapiens (Human), UniProt P11362) was > 300 nM

I looked up "C[C@@H](Oc1ccc2[nH]nc(-c3cnc(N4CC5(CCNCC5)C4)nc3)c2c1)c1c(Cl)cncc1Cl" and its Kd for FGFR1 (Homo sapiens (Human), UniProt P11362) was 1 to 20 nM

----------
- tgt: FGFR4 (Homo sapiens (Human))
- Sequence (P22455 22-802): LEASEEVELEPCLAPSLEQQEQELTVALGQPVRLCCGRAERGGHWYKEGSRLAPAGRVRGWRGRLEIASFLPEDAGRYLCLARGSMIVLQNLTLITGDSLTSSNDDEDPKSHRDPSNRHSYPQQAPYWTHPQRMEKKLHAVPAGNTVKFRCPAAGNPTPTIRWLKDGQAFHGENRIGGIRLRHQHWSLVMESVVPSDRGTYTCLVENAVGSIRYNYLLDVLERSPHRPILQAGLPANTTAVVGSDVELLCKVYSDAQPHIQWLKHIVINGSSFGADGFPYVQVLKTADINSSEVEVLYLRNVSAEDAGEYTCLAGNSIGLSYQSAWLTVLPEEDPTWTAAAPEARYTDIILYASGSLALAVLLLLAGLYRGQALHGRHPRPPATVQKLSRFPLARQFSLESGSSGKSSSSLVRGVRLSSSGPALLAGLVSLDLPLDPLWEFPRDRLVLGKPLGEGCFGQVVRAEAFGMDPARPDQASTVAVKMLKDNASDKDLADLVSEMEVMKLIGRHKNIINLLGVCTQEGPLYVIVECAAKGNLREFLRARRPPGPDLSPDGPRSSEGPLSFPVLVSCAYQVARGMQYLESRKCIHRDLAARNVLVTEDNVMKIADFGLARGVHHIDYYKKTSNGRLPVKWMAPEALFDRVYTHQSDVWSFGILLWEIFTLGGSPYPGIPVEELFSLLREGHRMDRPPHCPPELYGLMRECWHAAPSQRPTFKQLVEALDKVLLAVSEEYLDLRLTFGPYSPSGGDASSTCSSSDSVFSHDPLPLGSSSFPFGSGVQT
- assaySummary: Kinase assay, binding constants (Kd), kinase-tagged T7 phage, qPCR
observedProperty: Kd

I looked up C[C@@H](Oc1ccc2[nH]nc(-c3ccc(N4CC5(CCN(S(C)(=O)=O)C5)C4)nc3)c2c1)c1c(Cl)cncc1Cl [Example 163] and its Kd for FGFR4 (Homo sapiens (Human)) was 1 to 20 nM

I looked up "C[C@@H](Oc1ccc2[nH]nc(-c3ccc(N4CC5(CCCS(=O)(=O)C5)C4)nc3)c2c1)c1c(Cl)cncc1Cl" and its Kd for FGFR4 (Homo sapiens (Human)) was 1 to 20 nM

I looked up "C[C@H](Oc1ccc2[nH]nc(-c3ccc(N4CC5(C4)CN(S(C)(=O)=O)C5)nc3)c2c1)c1c(Cl)cnc(F)c1Cl" and its Kd for FGFR4 (Homo sapiens (Human)) was > 300 nM

I looked up "C[C@@H](Oc1ccc2[nH]nc(-c3cnc(N4CC5(CCN(S(C)(=O)=O)C5)C4)nc3)c2c1)c1c(Cl)cncc1Cl" and its Kd for FGFR4 (Homo sapiens (Human)) was 1 to 20 nM

----------
- tgt: FGFR3-BAIAP2L1 Ba/F3 cells (Homo sapiens)
- Sequence (P22607 23-806 limits assumed, change not shown): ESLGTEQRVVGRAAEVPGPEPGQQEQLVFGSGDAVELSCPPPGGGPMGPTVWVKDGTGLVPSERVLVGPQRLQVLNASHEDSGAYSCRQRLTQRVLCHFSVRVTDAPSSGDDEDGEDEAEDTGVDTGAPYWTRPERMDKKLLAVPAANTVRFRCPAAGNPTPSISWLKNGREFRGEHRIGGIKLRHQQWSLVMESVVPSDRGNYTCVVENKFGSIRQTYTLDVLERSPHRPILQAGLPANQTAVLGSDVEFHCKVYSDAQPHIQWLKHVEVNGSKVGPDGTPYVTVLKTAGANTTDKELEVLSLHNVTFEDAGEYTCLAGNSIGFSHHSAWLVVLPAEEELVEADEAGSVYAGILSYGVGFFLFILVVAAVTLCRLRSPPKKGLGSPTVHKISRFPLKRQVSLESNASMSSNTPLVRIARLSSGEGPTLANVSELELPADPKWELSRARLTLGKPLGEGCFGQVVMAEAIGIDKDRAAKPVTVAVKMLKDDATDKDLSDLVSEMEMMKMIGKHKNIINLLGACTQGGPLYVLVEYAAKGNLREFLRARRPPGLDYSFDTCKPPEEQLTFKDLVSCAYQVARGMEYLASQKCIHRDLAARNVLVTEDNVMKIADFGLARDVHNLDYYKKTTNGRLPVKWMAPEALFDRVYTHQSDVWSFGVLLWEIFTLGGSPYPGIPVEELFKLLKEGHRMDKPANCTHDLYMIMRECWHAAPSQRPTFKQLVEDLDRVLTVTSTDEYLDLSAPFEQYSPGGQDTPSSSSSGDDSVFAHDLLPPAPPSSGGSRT
- assaySummary: Ba/F3 cell viability assay (CellTiter-Glo 2.0), FGFR3-BAIAP2L1 Ba/F3
- Assay type: cell-based
- experimentalSetup: read-out: Ba/F3 Cells FGFR3 (IC50 nM); FGFR3-BAIAP2L1 Ba/F3 cells, 48 hours, Cell Titer Glo 2.0
Where a name gives a salt, the structure may show the parent alone.
observedProperty: IC50

I looked up C[C@@H](Oc1ccc2[nH]nc(-c3cnc(N4CCN(C(=O)N5CCN(C)CC5)CC4)c(F)c3)c2c1)c1c(Cl)cncc1Cl [Example 13] and its IC50 for FGFR3-BAIAP2L1 Ba/F3 cells (Homo sapiens) was 20 to 100 nM

I looked up C[C@@H](Oc1ccc2[nH]nc(-c3ccc(N4CCC5(CCC(=O)N5C)CC4)nc3)c2c1)c1c(Cl)cncc1Cl [Example 40] and its IC50 for FGFR3-BAIAP2L1 Ba/F3 cells (Homo sapiens) was 1 to 20 nM

I looked up C[C@@H](Oc1ccc2[nH]nc(-c3ccc(N4CCNCC4)nc3)c2c1)c1c(Cl)cncc1Cl [Example 2, dihydrochloride] and its IC50 for FGFR3-BAIAP2L1 Ba/F3 cells (Homo sapiens) was 1 to 20 nM

I looked up CC(C)S(=O)(=O)N1CC2(CN(c3ncc(-c4n[nH]c5ccc(O[C@H](C)c6c(Cl)cncc6Cl)cc45)cn3)C2)C1 [Example 120] and its IC50 for FGFR3-BAIAP2L1 Ba/F3 cells (Homo sapiens) was 20 to 100 nM

I looked up C[C@@H](Oc1ccc2[nH]nc(-c3ccc(N4CCN(C(=O)N5CCOCC5)CC4)nc3)c2c1)c1c(Cl)cncc1Cl [Example 3] and its IC50 for FGFR3-BAIAP2L1 Ba/F3 cells (Homo sapiens) was 1 to 20 nM

I looked up C[C@@H](Oc1ccc2[nH]nc(-c3cnc(N4CCC5(CC4)CCS(=O)(=O)C5)nc3)c2c1)c1c(Cl)cncc1Cl [Example 57] and its IC50 for FGFR3-BAIAP2L1 Ba/F3 cells (Homo sapiens) was 1 to 20 nM

I looked up Cc1ncc(Cl)c([C@@H](C)Oc2ccc3[nH]nc(-c4cnn(C5CCN(C)CC5)c4)c3c2)c1Cl [Example 80] and its IC50 for FGFR3-BAIAP2L1 Ba/F3 cells (Homo sapiens) was 1 to 20 nM

I looked up C[C@@H](Oc1ccc2[nH]nc(-c3cnn(C4CCOCC4)c3)c2c1)c1c(Cl)cncc1Cl [Example 106] and its IC50 for FGFR3-BAIAP2L1 Ba/F3 cells (Homo sapiens) was 1 to 20 nM

I looked up Cc1ncc(Cl)c([C@@H](C)Oc2ccc3[nH]nc(-c4cnn(C5CCOCC5)c4)c3c2)c1Cl [Example 104] and its IC50 for FGFR3-BAIAP2L1 Ba/F3 cells (Homo sapiens) was 20 to 100 nM
